biological target: Beta-2 adrenergic receptor (Homo sapiens); test: Antagonist activity at beta-2 AR (unknown origin) overexpressed in HEK293 cell membrane assessed as inhibition of ISO-induced cAMP production at EC80 preincubated for 15 mins followed by agonist addition measured after 30 mins by TR-FRET assay
Sequence (P07550 whole entry): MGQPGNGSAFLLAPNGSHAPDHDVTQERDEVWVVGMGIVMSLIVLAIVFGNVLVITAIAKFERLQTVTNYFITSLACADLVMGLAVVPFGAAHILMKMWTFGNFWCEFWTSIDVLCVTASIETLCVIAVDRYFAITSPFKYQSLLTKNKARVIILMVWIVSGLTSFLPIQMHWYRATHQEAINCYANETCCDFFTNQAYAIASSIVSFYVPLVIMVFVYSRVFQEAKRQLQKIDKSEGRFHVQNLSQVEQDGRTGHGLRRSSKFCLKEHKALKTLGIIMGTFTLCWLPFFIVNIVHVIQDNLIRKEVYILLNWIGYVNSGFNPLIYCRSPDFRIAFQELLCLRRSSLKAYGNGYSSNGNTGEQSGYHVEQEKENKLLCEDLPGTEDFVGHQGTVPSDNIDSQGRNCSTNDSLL
# IC50 per entry
MEASUREMENT_NAME: IC50 (µM)

ITEM_SMILES: CC(C)NC[C@H](O)COc1ccc(CCCN=[N+]=[N-])cc1
TESTED_TARGET: Beta-2 adrenergic receptor (Homo sapiens)
UNIT_NAME: µM
DATA_VALUE: 3.98

ITEM_SMILES: CC(C)NC[C@H](O)COc1ccc(CCCCN=[N+]=[N-])cc1
TESTED_TARGET: Beta-2 adrenergic receptor (Homo sapiens)
UNIT_NAME: µM
DATA_VALUE: 4.79
